Each recorded value in this set is attributed to BindingDB's records for doi:10.1016/s0960-894x(98)00660-x.

- target.of.assay: V-type proton ATPase (Gallus gallus)
- assay.overview: Compound was measured for the inhibition of bafilomycin-sensitive ATPase activity in partially purified membrane preparation from chicken osteoclast (cOC)
Kindly supply the reported IC50 values for the records listed here.
Note to self: number, then unit, no commentary.

[[record]]
smi = "CO/C(=C\\C=C\\c1cc2cc(Cl)c(Cl)cc2[nH]1)C(=O)NC1CC(C)(C)N(C)C(C)(C)C1"
result = "27 nM"


Hi there! I need IC50 for each item below, if you can.
1. CO/C(=C\C=C/c1cc2cc(Cl)c(Cl)cc2[nH]1)C(=O)NC1CC(C)(C)N(C)C(C)(C)C1
2. CO/C(=C/C=C/c1cc2cc(Cl)c(Cl)cc2[nH]1)C(=O)NC1CC(C)(C)N(C)C(C)(C)C1

["663 nM", "2360 nM"]
